System: human erythrocytes
Experiment: Hemolysis assay
Format: cell-based
Square brackets hold non-standard residues; d marks the D form. Peptide text beside a SMILES is read from it. Nspe = C[C@H](NCC(=O)O)c1ccccc1; Nphe = O=C(O)CNCc1ccccc1; Nlys = NCCCCNCC(=O)O
endpoint: HD10 (µM)
Reply numerically in µM, unit not repeated.

Please tell me: HD10 of C[C@@H](c1ccccc1)N(CC(N)=O)C(=O)CN(Cc1ccccc1)C(=O)CN(CCCCN)C(=O)CN(C(=O)CN(Cc1ccccc1)C(=O)CN(CCCCN)C(=O)CN(C(=O)CN(Cc1ccccc1)C(=O)CN(CCCCN)C(=O)CN(C(=O)CN(Cc1ccccc1)C(=O)CNCCCCN)[C@@H](C)c1ccccc1)[C@@H](C)c1ccccc1)[C@@H](C)c1ccccc1 [1-Npm2,5,8,11, H-(Nlys-Npm-Nspe)4-NH2] (H-[Nlys][Nphe][Nspe][Nlys][Nphe][Nspe][Nlys][Nphe][Nspe][Nlys][Nphe][Nspe]-NH2) , system human erythrocytes?
87

Please tell me: HD10 of C[C@@H](c1ccccc1)N(CC(N)=O)C(=O)CN(C(=O)CN(CCCCN)C(=O)CN(C(=O)CN(C(=O)CN(CCCCN)C(=O)CN(C(=O)CN(C(=O)CN(CCCCN)C(=O)[C@@H]1CCCN1C(=O)CN(C(=O)CNCCCCN)[C@@H](C)c1ccccc1)[C@@H](C)c1ccccc1)[C@@H](C)c1ccccc1)[C@@H](C)c1ccccc1)[C@@H](C)c1ccccc1)[C@@H](C)c1ccccc1 [1-Pro3, H-Nlys-Nspe-L-Pro-(Nlys-Nspe-Nspe)3-NH2] (H-[Nlys][Nspe]P[Nlys][Nspe][Nspe][Nlys][Nspe][Nspe][Nlys][Nspe][Nspe]-NH2) , system human erythrocytes?
74

---

System: human erythrocytes
Test: Hemolysis assay
Format: cell-based
Settings: red cells of human, 1 h
Numbered stars: 1 amine (or outer) side, 2 acyl side, 3 side chain; on linkers, the order of the positions; unused ones are H or OH. Square brackets hold non-standard residues; d marks the D form. Peptide text beside a SMILES is read from it. Gly(N-CH2CH2-imidazol-4-yl) = O=C(O)CNCCc1c[nH]cn1; X2 = CCC[C@H](C)N(CC(=O)[*:2])[*:1]; Nspe = C[C@H](NCC(=O)O)c1ccccc1; Nlys = NCCCCNCC(=O)O
endpoint: HD10 (10% hemolytic dose)

Give the measured HD10 (10% hemolytic dose) of CCC[C@H](C)N(CC(=O)N(CC(N)=O)[C@@H](C)c1ccccc1)C(=O)CN(CCCCN)C(=O)CN(C(=O)CN(C(=O)CN(CCCCN)C(=O)CN(C(=O)CN(C(=O)CN(CCCCN)C(=O)CN(C(=O)CN(C(=O)CNCCCCN)[C@@H](C)CCC)[C@@H](C)c1ccccc1)[C@@H](C)CCC)[C@@H](C)c1ccccc1)[C@@H](C)CCC)[C@@H](C)c1ccccc1 [2-Nsap2,5,8,11] (H-[Nlys][X2][Nspe][Nlys][X2][Nspe][Nlys][X2][Nspe][Nlys][X2][Nspe]-NH2) .
>120/>120 μM

Give the measured HD10 (10% hemolytic dose) of C[C@@H](c1ccccc1)N(CC(=O)N(CCc1cnc[nH]1)CC(=O)N(CCCCN)CC(=O)N(CC(=O)N(CC(=O)N(CCCCN)CC(=O)N(CC(=O)N(CCc1cnc[nH]1)CC(N)=O)[C@@H](C)c1ccccc1)[C@@H](C)c1ccccc1)[C@@H](C)c1ccccc1)C(=O)CN(CCCCN)C(=O)CN(C(=O)CN(C(=O)CNCCCCN)[C@@H](C)c1ccccc1)[C@@H](C)c1ccccc1 [1-Nhis6,12] (H-[Nlys][Nspe][Nspe][Nlys][Nspe][Gly(N-CH2CH2-imidazol-4-yl)][Nlys][Nspe][Nspe][Nlys][Nspe][Gly(N-CH2CH2-imidazol-4-yl)]-NH2) .
>110/>110 μM

Give the measured HD10 (10% hemolytic dose) of C[C@@H](c1ccccc1)N(CC(N)=O)C(=O)CN(C(=O)CN(CCCCN)C(=O)CN(C(=O)CN(C(=O)CNCCCCN)[C@@H](C)c1ccccc1)[C@@H](C)c1ccccc1)[C@@H](C)c1ccccc1 [16 mer, H-(Nlys-Nspe-Nspe)2-NH2] (H-[Nlys][Nspe][Nspe][Nlys][Nspe][Nspe]-NH2) .
>220/>220 μM

Give the measured HD10 (10% hemolytic dose) of C[C@@H](c1ccccc1)N(CC(N)=O)C(=O)CN(C(=O)CN(CCCCN)C(=O)CN(C(=O)CN(C(=O)CN(CCCCN)C(=O)CN(C(=O)CN(C(=O)CN(CCCCN)C(=O)CN(C(=O)CN(C(=O)CN(CCCCN)C(=O)CN(C(=O)CN(C(=O)CNCCCCN)[C@@H](C)c1ccccc1)[C@@H](C)c1ccccc1)[C@@H](C)c1ccccc1)[C@@H](C)c1ccccc1)[C@@H](C)c1ccccc1)[C@@H](C)c1ccccc1)[C@@H](C)c1ccccc1)[C@@H](C)c1ccccc1)[C@@H](C)c1ccccc1 .
3 µM

Give the measured HD10 (10% hemolytic dose) of C[C@@H](c1ccccc1)N(CC(N)=O)C(=O)CN(C(=O)CN(C(=O)CN(C(=O)CN(C(=O)CN(C(=O)CN(C(=O)CN(C(=O)CN(CCCCN)C(=O)CN(CCCCN)C(=O)CN(CCCCN)C(=O)CNCCCCN)[C@@H](C)c1ccccc1)[C@@H](C)c1ccccc1)[C@@H](C)c1ccccc1)[C@@H](C)c1ccccc1)[C@@H](C)c1ccccc1)[C@@H](C)c1ccccc1)[C@@H](C)c1ccccc1 .
18 µM

Give the measured HD10 (10% hemolytic dose) of C[C@@H](c1ccccc1)N(CC(N)=O)C(=O)CN(C(=O)CN(CCCCN)C(=O)CN(C(=O)CN(C(=O)CN(CCCCN)C(=O)CN(C(=O)CN(C(=O)CNCCCCN)[C@@H](C)c1ccccc1)[C@@H](C)c1ccccc1)[C@@H](C)c1ccccc1)[C@@H](C)c1ccccc1)[C@@H](C)c1ccccc1 [19 mer, H-(Nlys-Nspe-Nspe)3-NH2] (H-[Nlys][Nspe][Nspe][Nlys][Nspe][Nspe][Nlys][Nspe][Nspe]-NH2) .
>150/>150 μM

---

System: Staphylococcus aureus NRS119
Format: cell-based
Settings: NRS119
Numbered stars: 1 amine (or outer) side, 2 acyl side, 3 side chain; on linkers, the order of the positions; unused ones are H or OH. Square brackets hold non-standard residues; d marks the D form. Peptide text beside a SMILES is read from it. X1 = CC(C)[C@H](C)N(CC(=O)[*:2])[*:1]; Nspe = C[C@H](NCC(=O)O)c1ccccc1; Nphe = O=C(O)CNCc1ccccc1; Nlys = NCCCCNCC(=O)O
endpoint: MIC Staphylococcus aureus NRS119 (µM)
Reply numerically in µM, unit not repeated.

Give the measured MIC Staphylococcus aureus NRS119 of C[C@@H](c1ccccc1)N(CC(N)=O)C(=O)CN(Cc1ccccc1)C(=O)CN(CCCCN)C(=O)CN(C(=O)CN(Cc1ccccc1)C(=O)CN(CCCCN)C(=O)CN(C(=O)CN(Cc1ccccc1)C(=O)CN(CCCCN)C(=O)CN(C(=O)CN(Cc1ccccc1)C(=O)CNCCCCN)[C@@H](C)c1ccccc1)[C@@H](C)c1ccccc1)[C@@H](C)c1ccccc1 [1-Npm2,5,8,11, H-(Nlys-Npm-Nspe)4-NH2] (H-[Nlys][Nphe][Nspe][Nlys][Nphe][Nspe][Nlys][Nphe][Nspe][Nlys][Nphe][Nspe]-NH2) .
9.1

Give the measured MIC Staphylococcus aureus NRS119 of C[C@@H](c1ccccc1)N(CC(N)=O)C(=O)CN(C(=O)CN(CCCCN)C(=O)CN(C(=O)CN(C(=O)CN(CCCCN)C(=O)[C@@H]1CCCN1C(=O)CN(C(=O)CN(CCCCN)C(=O)CN(C(=O)CN(C(=O)CNCCCCN)[C@@H](C)c1ccccc1)[C@@H](C)c1ccccc1)[C@@H](C)c1ccccc1)[C@@H](C)c1ccccc1)[C@@H](C)c1ccccc1)[C@@H](C)c1ccccc1 [1-Pro6] (H-[Nlys][Nspe][Nspe][Nlys][Nspe]P[Nlys][Nspe][Nspe][Nlys][Nspe][Nspe]-NH2) .
9.1

Give the measured MIC Staphylococcus aureus NRS119 of NCCCCNCC(=O)N(CC(=O)N(CC(=O)N(CCCCN)CC(=O)N(CC(=O)N(CC(=O)N(CCCCN)CC(=O)N(CC(=O)N(CC(=O)N(CCCCN)CC(=O)N(CC(=O)N(CC(N)=O)Cc1ccccc1)Cc1ccccc1)Cc1ccccc1)Cc1ccccc1)Cc1ccccc1)Cc1ccccc1)Cc1ccccc1)Cc1ccccc1 [1achiral, H-(Nlys-Npm-Npm)4-NH2] (H-[Nlys][Nphe][Nphe][Nlys][Nphe][Nphe][Nlys][Nphe][Nphe][Nlys][Nphe][Nphe]-NH2) .
9.4

Give the measured MIC Staphylococcus aureus NRS119 of CC(C)[C@H](C)N(CC(=O)N(CC(=O)N(CCCCN)CC(=O)N(CC(=O)N(CC(=O)N(CCCCN)CC(=O)N(CC(=O)N(CC(=O)N(CCCCN)CC(=O)N(CC(=O)N(CC(N)=O)[C@@H](C)c1ccccc1)[C@@H](C)C(C)C)[C@@H](C)c1ccccc1)[C@@H](C)C(C)C)[C@@H](C)c1ccccc1)[C@@H](C)C(C)C)[C@@H](C)c1ccccc1)C(=O)CNCCCCN [1-Nsdp2,5,8,11, H-(Nlys-Nsdp-Nspe)4-NH2] (H-[Nlys][X1][Nspe][Nlys][X1][Nspe][Nlys][X1][Nspe][Nlys][X1][Nspe]-NH2) .
9.5

Give the measured MIC Staphylococcus aureus NRS119 of C[C@@H](c1ccccc1)N(CC(N)=O)C(=O)CN(C(=O)CN(CCCCN)C(=O)[C@@H]1CCCN1C(=O)CN(C(=O)CN(CCCCN)C(=O)CN(C(=O)CN(C(=O)CN(CCCCN)C(=O)CN(C(=O)CN(C(=O)CNCCCCN)[C@@H](C)c1ccccc1)[C@@H](C)c1ccccc1)[C@@H](C)c1ccccc1)[C@@H](C)c1ccccc1)[C@@H](C)c1ccccc1)[C@@H](C)c1ccccc1 [1-Pro9] (H-[Nlys][Nspe][Nspe][Nlys][Nspe][Nspe][Nlys][Nspe]P[Nlys][Nspe][Nspe]-NH2) .
9.1

Data provenance is patent US20100036088A1.
